Origin of the recorded values: patent US20250304717A1

# assayed_target: T1, CDH6 on OVCAR3 cells (human, UniProt P55285 54-790)
# T1 construct: whole, on cells; also called CDH6 positive cells OVCAR3; CDH6 high-expression cell strain
# T1 sequence (looked up): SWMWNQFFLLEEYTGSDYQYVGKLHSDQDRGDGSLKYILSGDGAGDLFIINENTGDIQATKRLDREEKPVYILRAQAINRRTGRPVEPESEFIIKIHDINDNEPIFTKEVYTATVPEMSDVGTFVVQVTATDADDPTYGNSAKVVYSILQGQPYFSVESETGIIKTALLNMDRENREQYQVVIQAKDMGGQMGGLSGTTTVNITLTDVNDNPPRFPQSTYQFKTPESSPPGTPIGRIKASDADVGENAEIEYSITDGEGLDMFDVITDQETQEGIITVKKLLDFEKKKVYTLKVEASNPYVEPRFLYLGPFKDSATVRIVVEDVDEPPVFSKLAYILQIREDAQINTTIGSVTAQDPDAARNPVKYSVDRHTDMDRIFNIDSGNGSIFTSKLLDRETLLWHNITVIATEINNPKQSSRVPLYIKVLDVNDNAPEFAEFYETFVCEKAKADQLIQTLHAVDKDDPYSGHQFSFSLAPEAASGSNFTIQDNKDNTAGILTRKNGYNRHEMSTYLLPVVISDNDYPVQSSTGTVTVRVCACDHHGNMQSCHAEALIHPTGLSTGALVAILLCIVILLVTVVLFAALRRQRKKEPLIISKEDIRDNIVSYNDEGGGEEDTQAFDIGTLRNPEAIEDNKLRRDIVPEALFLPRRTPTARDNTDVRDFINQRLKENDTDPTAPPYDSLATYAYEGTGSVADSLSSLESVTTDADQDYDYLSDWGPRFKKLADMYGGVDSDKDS
# assay_procedure: flow cytometry (FACS) on OVCAR3 cells, Alexa Fluor 647 anti-human Fc secondary antibody, MFI, four-parameter fit
# Method: OVCAR3 cells were collected, counted, and plated in a 96-well plate (Corning, 3795) at 2×10⁵ cells/well. The serially diluted sample to be detected was added and incubated at 4° C. for 1 h. […] After the mixture was washed twice with ice PBS, the cells were resuspended, and the mean fluorescence intensity (MFI) was analyzed using a flow cytometer (BD FACSCanto™ II). Data were analyzed by four-parameter curve fitting using Graphpad Prism software to give EC₅₀ values.
property_measured: EC50 (pM)
Quick reminder: number only, in pM, skip the unit.

// query Tell me its EC50 given CDH6-Ab (antibody, human IgG1, kappa, V domains shown, also called anti-human CDH6 monoclonal antibody CDH6-Ab) VH: EVQLVQSGAEVKKPGASVKVSCKASGYTFTRNFMHWVRQAPGQGLEWMGWIYPGDGETEYAQKFQGRVTITADTSTSTAYMELSSLRSEDTAVYYCARGVYGGFAGGYFDFWGQGTLVTVSS VL: DIQMTQSPSSLSASVGDRVTITCKASQNIYKNLAWYQQKPGKAPKLLIYDANTLQTGVPSRFSGSGSGSDFTLTISSLQPEDFATYFCQQYYSGWAFGQGTKVEIKR as the entry.
// result 710

// query Tell me its EC50 given ADC-L1-19-6 (antibody, human IgG1, kappa, V domains shown, drug-linker L1-19 on cysteine thiols after TCEP reduction; positions not given; DAR 7.4 for the whole conjugate, Antibody-drug conjugate) VH: EVQLVQSGAEVKKPGASVKVSCKASGYTFTDYYMAWVRQAPGQGLEWMGYIFPNSGGTDYSQKFKGRVTLTVDKSTSTVYMELSSLRSEDTAVYYCARELGADYGDYYAMDHWGQGTTVTVSS VL: DIQMTQSPSSLSASVGDRVTITCRASENIDSYLAWYQQKPGKSPKLLVYSATLLADGVPSRFSGSGSGTDYTLTISSLQPEDFATYYCQHYYRTPPTFGQGTKLEIKR as the entry.
// result 850
